# measured target: T1, MBP-fused PDZ domain 1 of NHERF3 (human, UniProt Q5T2W1 9-90)
# T1 sequence (looked up): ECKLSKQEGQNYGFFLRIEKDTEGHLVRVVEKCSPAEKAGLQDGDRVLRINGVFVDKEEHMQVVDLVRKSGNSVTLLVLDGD
# protocol details: SPR
Where no end group is shown, it is not given here.
parameter: pKd
One number for each entry, as −log10 of the molar value.

**Q:** Answer with the recorded pKd for the binder listed here: RSSRTRRETQL (not fully specified (N-terminus); also: biotinylated, position not given here) [biotinylated HPV16 E6 peptide]
**A:** 4.64
